Please go through the items and note down their inhibition.
Molecular target: Trace amine-associated receptor 1 (Homo sapiens) (UniProt Q96RJ0)
Sequence (Q96RJ0 whole entry, looked up): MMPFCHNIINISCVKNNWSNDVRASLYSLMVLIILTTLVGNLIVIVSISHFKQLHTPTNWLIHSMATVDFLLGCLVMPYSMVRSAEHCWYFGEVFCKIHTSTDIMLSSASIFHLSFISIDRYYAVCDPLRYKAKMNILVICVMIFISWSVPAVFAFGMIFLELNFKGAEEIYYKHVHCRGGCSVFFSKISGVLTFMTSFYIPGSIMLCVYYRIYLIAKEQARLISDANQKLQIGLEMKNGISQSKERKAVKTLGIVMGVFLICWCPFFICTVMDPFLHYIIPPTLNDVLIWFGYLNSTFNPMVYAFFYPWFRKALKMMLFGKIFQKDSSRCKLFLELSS
Test: blockers of beta-PEA-driven TAAR1 calcium signal – Fluo-8 calcium fluorescence, CHO RD-HGA16 cells, primary screen (AID 624466);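 note: 0% = DMSO plus EC80 beta-PEA response and 100% = DMSO alone without agonist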
Details: CHO RD-HGA16 TAAR1, Fluo-8 calcium fluorescence, antagonist; at 3 µM; stronger effect = higher value
Among all 360,000 compounds or so, about 5,400 (1.5%) were called active. The sample holds actives, similar compounds and a random draw of the others, so the mix is not that of the screen.
Report the value in % with no unit label.

Kindly note: Trace amine-associated receptor 1 (Homo sapiens) (UniProt Q96RJ0), Cn1c(=O)c2c(ncn2CC(=O)N/N=C/c2cn[nH]c2-c2ccc(F)cc2)n(C)c1=O , inhibition value reported: 2.24

For Cc1ccc2c(c1)N(CC(=O)NCCc1ccc(Cl)cc1)C(=O)c1cccnc1O2 on Trace amine-associated receptor 1 (Homo sapiens) (UniProt Q96RJ0), measured inhibition was 64.2

With Trace amine-associated receptor 1 (Homo sapiens) (UniProt Q96RJ0) as the test system, Cc1[nH]nc2c1C(c1ccc(Br)cc1)NC2=O (centres undefined) showed inhibition of -19.4

Value (inhibition, Trace amine-associated receptor 1 (Homo sapiens) (UniProt Q96RJ0)) for record CCOc1cc(N2CCOCC2)c(OCC)cc1NC(=O)C1=NN(c2cccc(C)c2)C(=O)CC1 = 44.9

Log: Trace amine-associated receptor 1 (Homo sapiens) (UniProt Q96RJ0), compound O=C1Nc2ccccc2C1=NN=Cc1ccco1 , inhibition = -11.4

Summary: NC(=O)COc1ccc(/C=N/NC(=O)C2CCCN2S(=O)(=O)c2ccc(Cl)cc2)cc1 (centres undefined) , Trace amine-associated receptor 1 (Homo sapiens) (UniProt Q96RJ0), inhibition = 15.8

Item CCOc1cc(N2CCOCC2)c(OCC)cc1NC(=O)COC(=O)[C@H](Cc1c[nH]c2ccccc12)NC(C)=O ; assay system Trace amine-associated receptor 1 (Homo sapiens) (UniProt Q96RJ0); inhibition reported as 22.1

# value of inhibition, Trace amine-associated receptor 1 (Homo sapiens) (UniProt Q96RJ0), item CCCCn1nnnc1C1(C)CCC(=O)N1Cc1ccc(OC)c(OC)c1 (centres undefined) = -1.16

Entry CC1CCN(C(=O)c2ncn3c2C(=O)N[C@@H](C)C3)CC1 : inhibition on Trace amine-associated receptor 1 (Homo sapiens) (UniProt Q96RJ0) = -2.44

Measured inhibition (Trace amine-associated receptor 1 (Homo sapiens) (UniProt Q96RJ0)), entry COc1ccc(Cl)cc1N(CC(=O)N/N=C/c1ccc(OCC(N)=O)cc1)S(C)(=O)=O : 6.35

Trace amine-associated receptor 1 (Homo sapiens) (UniProt Q96RJ0) inhibition of CCCCNC(=O)OC1CC2CC1[C@H]1CCCCN1C2=O (some centres undefined) is -1.17

inhibition on Trace amine-associated receptor 1 (Homo sapiens) (UniProt Q96RJ0) for CCOC(=O)c1cc2cc(OC)ccc2n1C1CCN(C)CC1 is -4.73

The value of inhibition recorded for COCCn1c(C)cc(C(=O)CSc2nnc(C3CC3)n2C2CC2)c1C when tested on Trace amine-associated receptor 1 (Homo sapiens) (UniProt Q96RJ0) reads 10.2

Field inhibition (Trace amine-associated receptor 1 (Homo sapiens) (UniProt Q96RJ0)), entry O=C(CN1C(=O)c2cccnc2Oc2ccc(Cl)cc21)NCCc1ccccc1 : 12.2

Noted inhibition for COC(=O)[C@]12C[C@H](CC(=O)NCCc3ccccc3OC)C(=O)N(Cc3ccccc3)C1=C[C@H](C(C)C)O[C@@H]2C1CC1 , tested on Trace amine-associated receptor 1 (Homo sapiens) (UniProt Q96RJ0): -27.5

Record Cc1ccc(F)cc1S(=O)(=O)Nc1cccc(C(=O)N2CCCC(C(N)=O)C2)c1 (centres undefined) / Trace amine-associated receptor 1 (Homo sapiens) (UniProt Q96RJ0), inhibition recorded as -13.3

# lookup: C(#CCN1CCOCC1)CCCN1CCOCC1 on Trace amine-associated receptor 1 (Homo sapiens) (UniProt Q96RJ0), inhibition = -21.3

// inhibition (Trace amine-associated receptor 1 (Homo sapiens) (UniProt Q96RJ0)) for O=C(NCc1ccccc1)C1c2ccccc2OCC(=O)N1CCCN1CCOCC1 (centres undefined) = -17.4

Param item: Cc1ccc2c(c1)N(CC(=O)NCCCN1CCCCC1)C(=O)c1cccnc1O2 ; param system: Trace amine-associated receptor 1 (Homo sapiens) (UniProt Q96RJ0); output inhibition: -18.1

* * *

Target: Trace amine-associated receptor 1 (Homo sapiens) (UniProt Q96RJ0)
Assay: blockers of beta-PEA-driven TAAR1 calcium signal – Fluo-8 calcium fluorescence, CHO RD-HGA16 cells, primary screen (AID 624466);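 note: 0% = DMSO plus EC80 beta-PEA response and 100% = DMSO alone without agonist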
Details: CHO RD-HGA16 TAAR1, Fluo-8 calcium fluorescence, antagonist; at 3 µM; stronger effect = higher value
The campaign covered roughly 360,000 compounds. About 5,400 (1.5%) were called active. The list comes from a sample in which actives are over-represented; it also holds close analogues and randomly drawn compounds.
measured_quantity: inhibition (%)
Write down the numeric answer in % and omit the unit.

So, O=C(NCc1ccccc1)[C@@H]1CCCN1C(=O)[C@H]1CCCN1C(=O)c1cccc(Cl)c1 ? Its inhibition was -3.29

Recorded result, Cc1ccc(CNC(=O)c2ccccc2CCc2ccccc2)cc1 , inhibition: 49.7

For this compound ( COCCNC(=O)c1cc2c(Br)ccc(Br)c2nc1N ), measured inhibition is -4.31

Quick note, inhibition for Cc1ccc(S(=O)(=O)N[C@H]2CCC[C@@H]2O)cc1 landed at -6.11

Record Cc1cccc(NC(=O)c2ccc(COc3ccccc3[N+](=O)[O-])o2)n1 , field inhibition: 51.5

// inhibition value for COc1cc(C(C(=O)NC2CCCC2)N(Cc2ccccc2)C(=O)c2snc(C(N)=O)c2N)ccc1O (stereo unspecified) : 23.1

Recorded result, COc1ccc(OC)c(CN2C(=O)CCC2(C)c2nnnn2Cc2ccccc2)c1 (stereo unspecified) , inhibition: -20.4

The recorded inhibition for COc1cc(NC(=O)COc2ccccc2Cl)ccc1NC(=O)C(C)C is -12.5

// recorded inhibition for O=C(CN1CCN(c2ccc(O)cc2)CC1)NC1CCCc2ccccc21 (stereo unspecified) : -0.58

Lookup result for Cc1ccc(NC(=O)COc2coc(CN3CCc4ccccc4C3)cc2=O)cc1Cl ; measured inhibition: -6.95

Form field inhibition, entry COc1ccc2c(c1)C(SCC(=O)NCc1ccccc1)CC(C)(C)O2 (stereo unspecified) : 13

* * *

Molecular target: Trace amine-associated receptor 1 (Homo sapiens)
Test: blockers of beta-PEA-driven TAAR1 calcium signal – Fluo-8 calcium fluorescence, CHO RD-HGA16 cells, primary screen (AID 624466);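 note: 0% = DMSO plus EC80 beta-PEA response and 100% = DMSO alone without agonist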
Details: CHO RD-HGA16 TAAR1, Fluo-8 calcium fluorescence, antagonist; at 3 µM; stronger effect = higher value
The whole screen tested about 360,000 compounds, of which about 5,400 (1.5%) were called active. This excerpt belongs to a sample that is enriched for actives.
measured_quantity: inhibition (%)
Lab book: enter the figure in %, no units written.

Value sought: inhibition, system Trace amine-associated receptor 1 (Homo sapiens), item COc1ccc(C(=O)Oc2ccc(-c3nnco3)cc2)cc1S(=O)(=O)N1CCOCC1 . Result: 60.2

# inhibition measured on Trace amine-associated receptor 1 (Homo sapiens) for item CCO[C@H]1OC(C(=O)NCc2ccccc2)=C[C@@H](c2coc3ccccc3c2=O)[C@@H]1CCCO = 1.58

Bench note, Trace amine-associated receptor 1 (Homo sapiens): entry COc1ccc2nc3n(c(=O)c2c1)-c1ccc(Cl)cc1C(=O)NC3Cc1ccccc1 (configuration not stated) , its inhibition = 25.3

Entry Cc1onc(-c2ccccc2Cl)c1C(=O)OCc1nnc(-c2ccccc2)o1 ; assay system Trace amine-associated receptor 1 (Homo sapiens); inhibition recorded at 14.8

inhibition on Trace amine-associated receptor 1 (Homo sapiens) for CCCNC(=O)C[C@@H]1CC[C@@H]2[C@H](COC[C@H](O)CN2C(=O)c2cc(Cl)cc(Cl)c2)O1 is -27.3

Record O=C1CCN(Cc2ccccc2)CCN1[C@H](CSc1ccccc1)c1ccccc1 has Trace amine-associated receptor 1 (Homo sapiens) inhibition equal to 15.6

Observed inhibition, Trace amine-associated receptor 1 (Homo sapiens), CCCCn1nc(C(=O)Nc2cccc(C(=O)NC3CC3)c2)c2ccccc2c1=O : 48.7

Value sought: inhibition, system Trace amine-associated receptor 1 (Homo sapiens), item CCN1CCc2c(C#N)c(NCc3ccccc3)nc(NCCO)c2C1 . Result: 106

Field inhibition (system: Trace amine-associated receptor 1 (Homo sapiens)) for entry FC(F)(F)c1cccc(-c2nc3ccccc3n2C(c2ccccc2)c2nc3ccccc3[nH]2)c1 (configuration not stated) = 18.4

The measured inhibition that CC(C)(O)C1=C[N+](=O)CC=C1 showed for Trace amine-associated receptor 1 (Homo sapiens) is 2.41

inhibition for Trace amine-associated receptor 1 (Homo sapiens) with input CC(C)(CCl)C(=O)Nc1ccc(Sc2ccc(F)cc2)cc1 equals 57.9

Per the reported Trace amine-associated receptor 1 (Homo sapiens) data, CCn1cc(CCC(=O)NCc2ccc(F)cc2)c2ccccc21 has inhibition of 8.18

// returns inhibition for Oc1ccccc1N1CCN(C(=S)NCc2ccccc2)CC1 with Trace amine-associated receptor 1 (Homo sapiens); value = 3.27

Result for CCCn1nc(C(=O)Nc2ccc3nc(C)sc3c2)c2ccccc2c1=O , tested on Trace amine-associated receptor 1 (Homo sapiens), inhibition: -20.5

Entry Cc1cc(S(=O)(=O)N2CCOCC2)ccc1OCC(=O)Nc1cccc(C(F)(F)F)c1 , tested on Trace amine-associated receptor 1 (Homo sapiens), has a reported inhibition of 30.6

The observed inhibition for NC(=O)C1CCN(C(=O)c2ccc(F)c(S(=O)(=O)N3CCOCC3)c2)CC1 when tested with Trace amine-associated receptor 1 (Homo sapiens) stands at 6.75

Tested system Trace amine-associated receptor 1 (Homo sapiens); inhibition recorded for CCc1ccc2oc(-c3ccc(N)cc3)nc2c1 was 8.65

Tested on Trace amine-associated receptor 1 (Homo sapiens), the item COc1ccc(C(=O)OC(C)C(=O)NC2CCCC2)cc1S(=O)(=O)N1CCOCC1 (configuration not stated) showed inhibition equal to -9.55

The value of inhibition recorded for CCCCCCCCN1C(=O)[C@H](CC(=O)NCc2cccc3ccccc23)C[C@@]2(C(=O)OC)CCCCC=C12 when tested on Trace amine-associated receptor 1 (Homo sapiens) reads 2.1

Item CCCCc1nc(NCc2ccccc2)c(C#N)c2c1CCCC2 was tested on Trace amine-associated receptor 1 (Homo sapiens); the reported inhibition is -12.6

# value of inhibition, Trace amine-associated receptor 1 (Homo sapiens), item COc1ccc(NC(=O)[C@H](NC(=O)[C@@H]2Cc3ccccc3CN2)c2ccccc2)cc1 = -18

Trace amine-associated receptor 1 (Homo sapiens) inhibition of O=C(CCl)Nc1ccc(Sc2ccc(NC(=O)CCl)cc2)cc1 is 21.9

Entry Oc1ccccc1N1CCN(c2ncnc3sc(-c4ccccc4)cc23)CC1 ; assay system Trace amine-associated receptor 1 (Homo sapiens); inhibition recorded at 58.6

Considering COC(=O)C1(C(=O)OC)C[C@H](c2ccccc2)N(Cc2ccccc2OC)[C@@H]1c1ccccc1 , its inhibition with Trace amine-associated receptor 1 (Homo sapiens) was recorded as -23.2

# CC(C)CCNc1nc(N2CCCC2)c2c(c1C#N)CCN(C)C2 with Trace amine-associated receptor 1 (Homo sapiens): inhibition is -24.7

Query Cc1cccc(C)c1NC(=O)CNC(=O)C1CCCC1 on Trace amine-associated receptor 1 (Homo sapiens); inhibition returned: 100

inhibition on Trace amine-associated receptor 1 (Homo sapiens) for CCn1cc(/C=C2/SC(=S)NC2=O)c(C)n1 is -4.35
